test protocol: SRB cytotoxicity assay, VERO
Format: cell-based, monkey
particulars: monkey; 10 μM, 48 hours, SRB assay; read-out: In vitro cytotoxicity at 10 μM dose, VERO (percent growth inhibition)
Where a SMILES comes first, the peptide text is derived from it. [ ]: non-standard residue; d: D form. The star is where a group is joined. Pro(5R-(5-methylfur-2-yl)) = Cc1ccc([C@H]2CC[C@@H](C(=O)O)N2)o1; NHCHPh2 = c1ccc(C(N*)c2ccccc2)cc1; Chg = N[C@H](C(=O)O)C1CCCCC1; NMeA = CN[C@@H](C)C(=O)O
quantity kind: inhibition at 48 h, 10 μM

// query Entry CC[C@H](C)[C@H](NC(=O)[C@@H]1CC[C@H](c2ccc(C)o2)N1C(=O)[C@@H](NC(=O)[C@H](C)NC)C1CCCCC1)C(=O)NC(c1ccccc1)c1ccccc1 [Compound 9] (H-[NMeA][Chg][Pro(5R-(5-methylfur-2-yl))]I-NHCHPh2) needs its inhibition at 48 h, 10 μM filled in; supply it.
// result 59.4%

----------
test protocol: Pharmacokinetics of C6 in mice (IV, SC, oral)
particulars: mouse, plasma, sc, 30 mg/kg
quantity kind: AUC(0-inf)
Reply with the number, then its unit.

// query Entry CC[C@H](C)[C@H](NC(=O)[C@@H]1CC[C@H](c2ccc(C)o2)N1C(=O)[C@@H](NC(=O)[C@H](C)NC)C(C)C)C(=O)NC(c1ccccc1)c1ccccc1 needs its AUC(0-inf) filled in; supply it.
// result 17400 ng·h/mL

----------
test protocol: in vivo
particulars: mouse, sc, 30 mg/kg
quantity kind: half-life (min)
Answers are plain numbers, in min.

// query Entry CC[C@H](C)[C@H](NC(=O)[C@@H]1CC[C@H](c2ccc(C)o2)N1C(=O)[C@@H](NC(=O)[C@H](C)NC)C(C)C)C(=O)NC(c1ccccc1)c1ccccc1 needs its half-life filled in; supply it.
// result 126

----------
test protocol: Pharmacokinetics of C6 in mice (IV, SC, oral)
particulars: mouse, plasma, sc, 30 mg/kg
quantity kind: Tmax (min)
Numbers only, in min.

// query Entry CC[C@H](C)[C@H](NC(=O)[C@@H]1CC[C@H](c2ccc(C)o2)N1C(=O)[C@@H](NC(=O)[C@H](C)NC)C(C)C)C(=O)NC(c1ccccc1)c1ccccc1 needs its Tmax filled in; supply it.
// result 52.8

----------
test protocol: Pharmacokinetics of C6 in mice (IV, SC, oral)
particulars: mouse, plasma, iv, 4 mg/kg
quantity kind: MRT (h)
One number for each entry, in h.

// query Entry CC[C@H](C)[C@H](NC(=O)[C@@H]1CC[C@H](c2ccc(C)o2)N1C(=O)[C@@H](NC(=O)[C@H](C)NC)C(C)C)C(=O)NC(c1ccccc1)c1ccccc1 needs its MRT filled in; supply it.
// result 1.72

----------
System: HEP-G2 cells
test protocol: SRB cytotoxicity assay, HEP-G2
Format: cell-based
particulars: Homo sapiens, HepG2, Liver
quantity kind: pIC50
Numbers only, as −log10 of the molar value.

// query Entry CC[C@H](C)[C@H](NC(=O)[C@@H]1CC[C@H](c2ccc(C)o2)N1C(=O)[C@@H](NC(=O)[C@H](C)NC)C(C)C)C(=O)NC(c1ccccc1)c1ccccc1 needs its pIC50 filled in; supply it.
// result 5.14

----------
test protocol: SRB cytotoxicity assay, VERO
Format: cell-based, monkey
particulars: monkey
Procedure: In vitro cytotoxic activities of different compounds were assessed by using standard SRB assay in different cells. The absorbance of the treated and untreated cells was measured on a multi-well scanning spectrophotometer (Epoch Microplate Reader, Biotek, USA) at a wavelength of 510 nm. Percent growth inhibition was calculated by using the formula […].
Where a SMILES comes first, the peptide text is derived from it. [ ]: non-standard residue; d: D form. The star is where a group is joined. Pro(5R-(5-methylfur-2-yl)) = Cc1ccc([C@H]2CC[C@@H](C(=O)O)N2)o1; Chg = N[C@H](C(=O)O)C1CCCCC1; NMeA = CN[C@@H](C)C(=O)O; OBn = c1ccc(CO*)cc1
quantity kind: inhibition at 48 h, 10 μM (%)
One number for each entry, in %.

// query Entry CC[C@H](C)[C@H](NC(=O)[C@@H]1CC[C@H](c2ccc(C)o2)N1C(=O)[C@@H](NC(=O)[C@H](C)NC)C1CCCCC1)C(=O)OCc1ccccc1 [Compound 7] (H-[NMeA][Chg][Pro(5R-(5-methylfur-2-yl))]I-OBn) needs its inhibition at 48 h, 10 μM filled in; supply it.
// result 63.2
